Test system: U2OS
Test: Multiplex assay against U2OS
Type: toxicity, cell-based
Conditions: human, 24 h, 1 µM, compound concentration 1 uM, replicate 1
Mark Satisfied only when Population Normal (%) stays strictly below 90%. Values equal to the cut-off are Not satisfied.

Here's an entry: "c1ccc2oc(-c3csc(C4CCN(Cc5nc6ncccc6[nH]5)CC4)n3)cc2c1" . Is its Population Normal (%) below 90%?
Not satisfied

Report whether reported Population Normal (%) is lower than 90% (strictly) for "CCOc1cc(N2CCC(O)CC2)ccc1Nc1ncc2c(n1)N(C1CCCC1)CCC(=O)N2C"
Not satisfied

Check if Population Normal (%) falls below 90% for CCC(=O)O[C@]1(C(=O)SCF)[C@H](C)C[C@H]2[C@@H]3C[C@H](F)C4=CC(=O)C=C[C@]4(C)[C@@]3(F)[C@@H](O)C[C@@]21C [FLUTICASONE PROPIONATE] .
Not satisfied

Decide: Population Normal (%) of "COc1ccc(NS(=O)(=O)c2sc3ccc(Cl)cc3c2C)cc1N1CCNCC1.Cl" strictly below 90%?
Not satisfied

Is Population Normal (%) of "CN(C)CCOc1ccc(-c2nc(-c3ccncc3)c(-c3ccc4c(c3)CC/C4=N\O)[nH]2)cc1" strictly below 90%?
Satisfied

====

System: HEK-293T
Assay: Multiplex assay against HEK293T
Type: toxicity, cell-based
Conditions: human, 12 h, 10 µM, compound concentration 10 uM, replicate 2
API: label(entry) gives True if the entry's Population Mitotic Cells (%) is strictly smaller than 80%; on equality or larger values it gives False.

# strict comparison: is reported Population Mitotic Cells (%) < 80%? input = "CCCn1c(=O)c2[nH]c(C34CC5CC(CC3C5)C4)nc2n(CCC)c1=O"
True

State whether 80% exceeds Population Mitotic Cells (%) recorded for "N#Cc1cnc(Nc2cc(NC[C@H]3CNCCO3)c(C(F)(F)F)cn2)cn1" .
False

I'd appreciate it if you could check whether "CCOc1cc(N2CCC(O)CC2)ccc1Nc1ncc2c(n1)N(C1CCCC1)CCC(=O)N2C" has Population Mitotic Cells (%) smaller than 80%.
False

Report whether reported Population Mitotic Cells (%) is lower than 80% (strictly) for "COc1cc2c(NC3CCN(C(C)C)CC3)nc(N3CCC(F)(F)CC3)nc2cc1OCCCN1CCCC1"
True

Item "CCc1cc2c(cc1CC)CC(NC[C@H](O)c1ccc(O)c3[nH]c(=O)ccc13)C2" : Population Mitotic Cells (%) beneath 80%, strictly?
True

Confirm or reject: Population Mitotic Cells (%) of "CCOc1cc2ncc(C#N)c(Nc3ccc(OCc4cccc(F)c4)c(Cl)c3)c2cc1NC(=O)/C=C/CN(C)C" lies strictly below 80%
False

Does this compound meet the criterion Population Mitotic Cells (%) < 80%? "CN(C)CCOc1ccc(-c2nc(-c3ccncc3)c(-c3ccc4c(c3)CC/C4=N\O)[nH]2)cc1"
False

Threshold test, Population Mitotic Cells (%) < 80%: "Cc1cn(-c2cc(NC(=O)c3ccc4c(c3)CN(c3cncnc3)C[C@@H]4C)cc(C(F)(F)F)c2)cn1"
False

====

Please respond with reported Growth Rate for every item in the list.
Test system: Fibroblast
Assay: Incucyte cell viability with human fibroblast; note: filed as whole numbers so only -1 and 0 and 1 occur
Format: toxicity, cell-based
Conditions: 24 h, 10 µM, compound concentration 10 uM, replicate number 1, timepoint 24 hours
Note: the reply should be a number with no unit written.

Using the record for "Clc1cc2c(NC3CCCC3)nnc(-c3ccncc3)c2cc1Cl" , state its measured Growth Rate.
1

Hello, please tell me recorded Growth Rate for this one: "CCc1cc2c(cc1CC)CC(NC[C@H](O)c1ccc(O)c3[nH]c(=O)ccc13)C2"
0

Give the value of Growth Rate reported for the following: "CCCCc1nc(Cl)c(CO)n1Cc1ccc(-c2ccccc2-c2nn[nH]n2)cc1"
1

Provide Growth Rate value for the following molecule: "CNC(=O)c1cc(Oc2ccc(NC(=O)Nc3cc(C(C)(C)C)nn3-c3ccc4ncccc4c3)c(F)c2)ccn1"
0
